Task for the reader: assign each of the following compounds its reported CC50.
Protocol: Functional CPE-based assay to measure dose dependent changes in cell viability from drug treatment in Vero E6 miRFP670 cells (cotreated with P-gp inhibitor, CP100356). Cells are treated with antiviral candidates that have been serially diluted. Cytotoxicity is reported via analysis of MTS assays in uninfected cells. The assay has been performed by KU Leuven.
Format: toxicity, Vero C1008
Settings: chlorocebus sabaeus, Vero E6 miRFP670 cells, with CP100356 (P-gp inhibitor, concentration not stated); p-gp concentration 500 nM

query: Give a short answer stating reported CC50 for Cc1ccc(NC(=O)c2cc(Cl)cc(NC(=O)OCc3ccccc3)c2)cc1CN .
result: 5.8 µM

query: Give a short answer stating reported CC50 for O=C(Nc1ccc2c(c1)CNC2)c1cc(F)c2[nH]ccc2c1 .
result: 48.1 µM

query: Give a short answer stating reported CC50 for O=C(Nc1ccc2c(c1)CNC2)c1cc(Cl)cc(N2CCCC2)c1 .
result: 5.83 µM

query: Give a short answer stating reported CC50 for O=C(O)Cc1c[nH]c2cc(-c3cc(Cl)cc(NC(=O)OCc4ccccc4)c3)ccc12 .
result: 32.1 µM

query: Give a short answer stating reported CC50 for N#CCc1cc(NC(=O)c2cc(F)cc3[nH]ncc23)cc2c1CNC2 .
result: > 50 µM

query: Give a short answer stating reported CC50 for O=C(Nc1cc2c(cc1Br)CNC2)c1cc(Cl)cc2[nH]ncc12 .
result: 1.85 µM

query: Give a short answer stating reported CC50 for O=C(NC1CCOCC1)[C@H](Nc1ccc2c(c1)CNC2)c1cc(Cl)cc2[nH]ncc12 .
result: > 50 µM

query: Give a short answer stating reported CC50 for CNC(=O)[C@H](Nc1ccc2c(c1)CNC2)c1cc(Cl)cc2[nH]ncc12 .
result: > 50 µM

query: Give a short answer stating reported CC50 for O=C(Nc1cc2c(c(-c3c[nH]c(=O)c(F)c3)c1)CNC2)c1cc(F)cc2[nH]ncc12 .
result: > 50 µM

query: Give a short answer stating reported CC50 for O=C(Nc1ccc2c(c1)CNC2)c1cc(F)cc(-c2cccnc2)c1 .
result: 15.4 µM

query: Give a short answer stating reported CC50 for O=C(Nc1ccc2c(c1)CNC2)c1cc(F)cc2[nH]c(-c3ccc(F)cc3)nc12 .
result: 6.47 µM

query: Give a short answer stating reported CC50 for O=C(Nc1ccc2c(c1)CNC2)c1cc(Br)cc2[nH]ncc12 .
result: > 50 µM

query: Give a short answer stating reported CC50 for O=C(Nc1ccc2c(c1)CNC2)c1cccc2c(C3CNC3)n[nH]c12 .
result: > 50 µM

query: Give a short answer stating reported CC50 for O=C(Nc1cc2c(c(C3=CCOCC3)c1)CNC2)c1cc(F)cc2[nH]ncc12 .
result: > 50 µM

query: Give a short answer stating reported CC50 for O=C(NCC(F)F)[C@H](Nc1ccc2c(c1)CNC2)c1cc(F)cc2[nH]ncc12 .
result: > 50 µM

query: Give a short answer stating reported CC50 for O=C(Nc1ccc2c(c1)CCNCC2)c1cc(Cl)cc2[nH]ncc12 .
result: > 50 µM

query: Give a short answer stating reported CC50 for O=C(Nc1ccc2c(c1)CNC2)c1cc(Cl)cc2c1cnn2C1CCC1 .
result: 9.91 µM

query: Give a short answer stating reported CC50 for O=C(Nc1ccc2c(c1)CNC2)c1cc(Br)cc2[nH]c(=O)[nH]c12 .
result: > 50 µM

query: Give a short answer stating reported CC50 for O=C(Nc1ccc2c(c1)CNC2)c1cc(F)cc(-c2c[nH]c(=O)c(F)c2)c1 .
result: > 50 µM

query: Give a short answer stating reported CC50 for Cn1cc2c(C(=O)Nc3ccc4c(c3)CNC4)cc(F)cc2n1 .
result: > 50 µM

query: Give a short answer stating reported CC50 for O=C(Nc1ccc2c(c1)CNC2)c1cc(Cl)cc2c1NCCC2 .
result: 6.83 µM
